- System: SK-BR-3
- ASSAY_NAME: In vitro cytotoxic activity, SRB assay
- Format: cell-based, human
- MEASUREMENT_CONTEXT: SK-BR-3, 48 hours exposure, read-out: LC50 (the source's name)
Can you tell me CC50 for the items I'm about to list?
Answers are plain numbers, in µM.

// worked examples, CC50 included
C/C=C1\NC(=O)[C@H](Cc2ccccc2)NC(=O)[C@@H](C(C)C)NC(=O)[C@@H]([C@@H](C)CC)NC(=O)[C@H](NC(=O)[C@H](NC(=O)[C@H](CCCN)NC(=O)[C@H]2CCCN2C(=O)[C@H](NC(=O)[C@@H](NC(=O)[C@@H](NC(=O)[C@H](NC(=O)CC[C@H](C)CC)C(C)C)[C@@H](C)O)C(C)C)C(C)C)[C@@H](C)CC)[C@@H](C)OC(=O)[C@H](C(C)C)NC1=O : 3.86
C/C=C1\NC(=O)[C@H](Cc2ccccc2)NC(=O)[C@@H](C(C)C)NC(=O)[C@@H]([C@@H](C)CC)NC(=O)[C@H](NC(=O)[C@H](NC(=O)[C@H](CCCN)NC(=O)[C@H]2CCCN2C(=O)[C@H](NC(=O)[C@@H](NC(=O)[C@@H](NC(=O)[C@H](NC(=O)CCCC(C)C)C(C)C)[C@@H](C)O)C(C)C)C(C)C)[C@@H](C)CC)[C@@H](C)OC(=O)[C@H](C(C)C)NC1=O [5-methylhexanoic KF, reference compound] : 6.77

Query :: # query: CC50 of entry C/C=C1\NC(=O)[C@H](Cc2ccccc2)NC(=O)[C@@H](C(C)C)NC(=O)[C@@H]([C@@H](C)CC)NC(=O)[C@H](NC(=O)[C@H](NC(=O)[C@H](CCCN)NC(=O)[C@H]2CCCN2C(=O)[C@H](NC(=O)[C@@H](NC(=O)[C@@H](NC(=O)[C@H](NC(=O)CC[C@@H](C)CC)C(C)C)[C@@H](C)O)C(C)C)C(C)C)[C@@H](C)CC)[C@@H](C)OC(=O)[C@H](C(C)C)NC1=O
Result :: 0.606

###

- Test system: HELA
- ASSAY_NAME: In vitro cytotoxic activity, SRB assay
- MEASUREMENT_CONTEXT: read-out: LC50, 48 hours exposure
Can you tell me CC50 for the items I'm about to list?
Give bare numbers, in µM.

C/C=C1\NC(=O)[C@H](Cc2ccccc2)NC(=O)[C@@H](C(C)C)NC(=O)[C@@H]([C@@H](C)CC)NC(=O)[C@H](NC(=O)[C@H](NC(=O)[C@H](CCCN)NC(=O)[C@H]2CCCN2C(=O)[C@H](NC(=O)[C@@H](NC(=O)[C@@H](NC(=O)[C@H](NC(=O)CC[C@@H](C)CC)C(C)C)[C@@H](C)O)C(C)C)C(C)C)[C@@H](C)CC)[C@@H](C)OC(=O)[C@H](C(C)C)NC1=O : 4.97
C/C=C1\NC(=O)[C@H](Cc2ccccc2)NC(=O)[C@@H](C(C)C)NC(=O)[C@@H]([C@@H](C)CC)NC(=O)[C@H](NC(=O)[C@H](NC(=O)[C@H](CCCN)NC(=O)[C@H]2CCCN2C(=O)[C@H](NC(=O)[C@@H](NC(=O)[C@@H](NC(=O)[C@H](NC(=O)CCCC(C)C)C(C)C)[C@@H](C)O)C(C)C)C(C)C)[C@@H](C)CC)[C@@H](C)OC(=O)[C@H](C(C)C)NC1=O [5-methylhexanoic KF, reference compound] : 4.26

Moving on to another compound below.
Query :: # query: CC50 of entry C/C=C1\NC(=O)[C@H](Cc2ccccc2)NC(=O)[C@@H](C(C)C)NC(=O)[C@@H]([C@@H](C)CC)NC(=O)[C@H](NC(=O)[C@H](NC(=O)[C@H](CCCN)NC(=O)[C@H]2CCCN2C(=O)[C@H](NC(=O)[C@@H](NC(=O)[C@@H](NC(=O)[C@H](NC(=O)CC[C@H](C)CC)C(C)C)[C@@H](C)O)C(C)C)C(C)C)[C@@H](C)CC)[C@@H](C)OC(=O)[C@H](C(C)C)NC1=O
Result :: 3.55
